// data source = PubChem BioAssay (NCI)

System: A498 renal
Experiment: NCI tumour cell line growth inhibition, 48 h; in the data active = GI50 below about 0.43 µM; inactive = the rest
Form entry, call: pick from yes (1) (active), no (0) (inactive)

What classification did O=C(CN1C(=O)S/C(=C\C(Cl)=C\c2ccccc2)C1=O)NCCc1ccc(O)cc1 end up with in this test? no (0)

Another compound: O=C(NCCNc1nccc(-c2c(-c3cccc(O)c3)nc3sccn23)n1)Nc1cccc(C(F)(F)F)c1 no (0)

Another compound: N#Cc1c(N)nc(NCc2ccccc2)c(C#N)c1-c1ccccc1Cl no (0)

Another compound: O=C(Nc1ccc(OCc2nnc(-c3ccccc3)o2)c(F)c1)Nc1ccc(Cl)c(C(F)(F)F)c1 no (0)

Another compound: CS(=O)(=O)c1ccc(Oc2cc(F)cc(C#N)c2)c2c1[C@H](O)C(F)(F)C2 no (0)

Another compound: CCN(CC)CCCCNc1ncc2cc(-c3cc(OC)cc(OC)c3)c(NC(=O)NC(C)(C)C)nc2n1 yes (1)

Another compound: Clc1ccc(C2=NN[C@H](c3cn(-c4ccccc4)nc3-c3ccccc3)C2)cc1 no (0)

---

Please provide measured TGI for the entries that follow.
Test system: NCI-H23 lung
Experiment: NCI tumour cell line growth inhibition, 48 h

Recorded TGI for CCOC1(OCC)N=C(N)C2(C#N)C3(C(=O)N(C(C)C)N=C3C)C12C#N (centres undefined) with NCI-H23 lung, please? > 100 µM

Another compound: CCCc1nc(NC#N)nc(C(=O)NC23CC4CC(CC(C4)C2)C3)c1C > 100 µM

Another compound: C=C1CC2CC(=O)C(O)C(C1)C2 (centres undefined) > 100 µM

Another compound: O=C(Nc1sccc1S(=O)(=O)c1ccc(Cl)cc1)c1ccccc1 > 100 µM

---

Tested on: TK-10 renal
Test: NCI tumour cell line growth inhibition, 48 h
Please provide measured log10(TGI) for the entries that follow.
Short version: log10 scale, TGI, µM.

Given the compound COc1ccc2c(c1)/C(=C\c1c(Cl)n(C)c3ccccc13)C(=O)N2 , what is its reported log10(TGI)? 1.53

Another compound: CCN(CC)CCCC(Cc1ccccc1)Nc1c2ccc(Cl)cc2nc2ccc(OC)cc12 (centres undefined) 0.52

Another compound: COCCN(CCOC)C(=O)COc1c2cc(C(C)(C)C)cc1Cc1cc(C(C)(C)C)cc(c1OCC(=O)N(CCOC)CCOC)Cc1cc(C(C)(C)C)cc(c1OCC(=O)N(CCOC)CCOC)Cc1cc(C(C)(C)C)cc(c1OCC(=O)N(CCOC)CCOC)Cc1cc(C(C)(C)C)cc(c1OCC(=O)N(CCOC)CCOC)C2 1.18

Another compound: Cc1ccc(C(=O)C#Cc2c[nH]c(=O)[nH]c2=O)cc1 1.50

Another compound: COc1cc(Nc2nc3cc(C(F)(F)F)ccc3nc2-c2ccccc2)cc(OC)c1OC 1.89

Another compound: COc1ccc2cc(Cn3cc[n+](Cc4ccc5ccccc5c4)c3)ccc2c1 1.18

Another compound: C=Cc1cc(OC)c2c(c1)c(=O)oc1c2cc(OC)c2c(O)ccc(C3OC(C)C(O)C(C)(O)C3O)c21 (centres undefined) -2.07

Another compound: Cn1c(=O)cc(N=Nc2ccc(Cl)c(Cl)c2)[nH]c1=O 1.68

Another compound: O=C1CC[C@H](c2ccc(O)c3c2C(=O)[C@@H]2O[C@@H]2C3=O)c2cccc(O)c21 0.47

Another compound: O=C1C(c2c(O)[nH]c3ccccc23)=Nc2ccc(Br)cc21 1.81
